experiment: Clearance in Sprague-Dawley rat at 10 mg/kg, po and 2 mg/kg, iv; format: ADME, organism-based; conditions: in vivo
Measurement Label: clearance (mL/min/kg)
Field format: number, assumed mL/min/kg, no unit text.

**Query** Item Cc1ccc(-n2nccn2)c(C(=O)N2C3CCC2CN(c2ncc4ccc(F)cc4n2)CC3)c1 (single isomer, unassigned; 8a) : provide clearance
**Result** 23

* * *

Each item that follows carries a reported clearance.
assay: Clearance in dog at 3 mg/kg, po and 0.125 mg/kg, iv; type: ADME, organism-based, Canis lupus familiaris; conditions: in vivo

{"columns": ["Compound", "Measurement Label", "Value"],
 "data": [
  ["Cc1ccc(-n2nccn2)c(C(=O)N2C3CCC2CN(c2ncc4ccc(F)cc4n2)CC3)c1 (single isomer, unassigned; 8a)", "clearance", "3.6 mL/min/kg"]
]}

**Query** Identify clearance associated with the compound Cc1ccc(-n2nccn2)c(C(=O)N2CCCN(c3ncc4ccccc4n3)CC2)c1
**Result** 12 mL/min/kg

* * *

Target: Orexin/Hypocretin receptor type 1 (Homo sapiens)
Sequence (O43613 whole entry): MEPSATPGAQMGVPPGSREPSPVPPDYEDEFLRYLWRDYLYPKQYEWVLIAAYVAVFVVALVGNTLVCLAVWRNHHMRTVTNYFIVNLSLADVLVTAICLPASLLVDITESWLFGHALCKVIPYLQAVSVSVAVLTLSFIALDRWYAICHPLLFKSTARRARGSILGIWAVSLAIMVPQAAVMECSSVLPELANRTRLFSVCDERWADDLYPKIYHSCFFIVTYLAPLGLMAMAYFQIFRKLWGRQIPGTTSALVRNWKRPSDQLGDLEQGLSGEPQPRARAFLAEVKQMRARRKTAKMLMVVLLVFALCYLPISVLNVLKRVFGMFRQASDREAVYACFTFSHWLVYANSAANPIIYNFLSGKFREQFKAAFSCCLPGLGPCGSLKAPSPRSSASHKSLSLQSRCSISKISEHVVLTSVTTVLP
Measurement Label: Ki
# answer = value followed by unit

Check out these entries, answers already filled in.
{"columns": ["Compound", "Ki"],
 "data": [
  ["Cc1ccc(-n2nccn2)c(C(=O)N2C[C@H]3CC[C@@H]2CCN3c2ncc3ccc(F)cc3n2)c1", "0.6 nM"],
  ["O=C(c1cc(Cl)ccc1-n1nccn1)N1C[C@@H]2C[C@H](C1)N(c1ncc3cc(F)ccc3n1)C2", "0.4 nM"]
]}

// next item, Ki requested
**Query** Note down Ki recorded for Cc1ccc(-n2nccn2)c(C(=O)N2C3CCC2CN(c2ncc4ccc(F)cc4n2)CC3)c1 (single isomer, unassigned; 8b)
**Result** 3.7 nM

* * *

Target chain: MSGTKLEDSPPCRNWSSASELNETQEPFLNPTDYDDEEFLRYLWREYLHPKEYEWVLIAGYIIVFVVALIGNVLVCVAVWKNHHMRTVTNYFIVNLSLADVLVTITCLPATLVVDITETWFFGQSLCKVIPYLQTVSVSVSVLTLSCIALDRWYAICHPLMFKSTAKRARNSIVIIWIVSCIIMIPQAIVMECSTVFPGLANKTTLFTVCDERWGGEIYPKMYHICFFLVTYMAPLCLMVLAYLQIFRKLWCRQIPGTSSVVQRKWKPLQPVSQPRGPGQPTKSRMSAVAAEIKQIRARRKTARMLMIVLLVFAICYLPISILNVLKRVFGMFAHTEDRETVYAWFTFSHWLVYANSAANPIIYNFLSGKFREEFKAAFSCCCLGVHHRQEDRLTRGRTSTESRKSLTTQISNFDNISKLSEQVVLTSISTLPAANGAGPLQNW
Measurement Label: Ki (nM)
Your answer is read as nM, so omit the unit and give the number.

Known Ki results, listed for orientation:
{"columns": ["Compound", "Unit Abbreviation", "Ki"],
 "data": [
  ["O=C(c1cc(Cl)ccc1-n1nccn1)N1C[C@@H]2C[C@H](C1)N(c1ncc3cc(F)ccc3n1)C2", "nM", 0.6],
  ["Cc1ccc(-n2nccn2)c(C(=O)N2C3CCC2CN(c2ncc4ccc(F)cc4n2)CC3)c1 (single isomer, unassigned; 8b)", "nM", 6.7],
  ["Cc1ccc(-n2nccn2)c(C(=O)N2C[C@@H]3CC[C@H]2CN(c2ncc4ccc(F)cc4n2)C3)c1 (single isomer, unassigned)", "nM", 62]
]}

**Query** Tell me measured Ki for Cc1ccc(-n2nccn2)c(C(=O)N2C[C@@H]3CC[C@H]2CCN3c2ncc3ccc(F)cc3n2)c1 please.
**Result** 14
